Answer each item with its documented IC50.
Test system: MDA-MB-468 complex spheroids with HUVEC/MSC, viability
Assay info: Anticancer human tumor MDA-MB-468 cell line growth inhibition;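 further: spheroids exposed to agents for seven days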
Setup conditions: curve of first compound; second compound 3.16 µM

For O=C(C=Cn1cnc(-c2cc(C(F)(F)F)cc(C(F)(F)F)c2)n1)NNc1cnccn1 + NC1CCC(NC2CC2c2ccccc2)CC1 , what is its reported IC50?
< 3.16 nM

Try this compound next: CCN(c1cc(-c2ccc(CN3CCOCC3)cc2)cc(C(=O)NCc2c(C)cc(C)[nH]c2=O)c1C)C1CCOCC1 + NC1CCC(NC2CC2c2ccccc2)CC1
> 3000 nM

Try this compound next: CC(C)CC(NC(=O)C(Cc1ccccc1)NC(=O)c1cnccn1)B(O)O (centres undefined) + NC1CC1c1ccc(-c2cccc(O)c2)cc1
< 0.316 nM

Try this compound next: O=C(C=Cn1cnc(-c2cc(C(F)(F)F)cc(C(F)(F)F)c2)n1)NNc1cnccn1 + NC1CC1c1ccc(-c2cccc(O)c2)cc1
< 3.16 nM
